# measured_target: Adenosine receptor A1 (Homo sapiens)
# Sequence (P30542 whole entry): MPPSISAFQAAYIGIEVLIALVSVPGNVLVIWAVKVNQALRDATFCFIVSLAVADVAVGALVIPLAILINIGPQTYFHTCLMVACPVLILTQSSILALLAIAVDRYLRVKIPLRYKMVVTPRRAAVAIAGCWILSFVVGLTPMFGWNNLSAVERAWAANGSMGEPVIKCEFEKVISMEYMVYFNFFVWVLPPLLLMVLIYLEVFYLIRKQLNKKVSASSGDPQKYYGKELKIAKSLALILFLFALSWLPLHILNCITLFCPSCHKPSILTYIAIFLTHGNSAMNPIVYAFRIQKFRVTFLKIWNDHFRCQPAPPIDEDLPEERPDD
# test_description: Displacement of [3H]CCPA from human adenosine A1 receptor expressed in CHO cells
# Assay type: cell-based
observable: log10(Ki) (log10 of the value in nM)
Log10 applied to Ki; unit prior to transform: nM.

Known results for compounds:
1. CCCn1c(Br)nc2c(NCCc3ccccc3)ncnc21 ... 3.29
2. CCCn1c(-c2ccco2)nc2c(NCCc3ccccc3)ncnc21 ... 3.39

Could you report log10(Ki) for every entry in the following list?
1. CCCn1c(Br)nc2c(N)nc(NCc3ccccc3)nc21
2. CCCn1cnc2c(NCCc3ccccc3)ncnc21
3. CCCn1cnc2c(N)nc(NCCc3ccccc3)nc21
4. CCCn1c(-c2ccco2)nc2c(N)nc(NCCc3ccccc3)nc21
5. CCCn1c(Br)nc2c(NCCCc3ccccc3)ncnc21
6. CCCn1c(-c2ccco2)nc2c(N)nc(NCCCc3ccccc3)nc21
7. CCCn1c(-c2ccco2)nc2c(NCCCc3ccccc3)ncnc21
8. CCCn1c(Br)nc2c(N)nc(NCCc3ccccc3)nc21

-- reply
1. 2.55
2. 4.28
3. 3.37
4. 1.90
5. 3.43
6. 2.36
7. 2.58
8. 2.57

Could you report log10(Ki) for every entry in the following list?
1. CCCn1cnc2c(N)nc(NCCCc3ccccc3)nc21
2. CCCn1cnc2c(N)nc(NCc3ccccc3)nc21

-- reply
1. 3.56
2. 3.88
